B1: LINE1-full (parent)
chain: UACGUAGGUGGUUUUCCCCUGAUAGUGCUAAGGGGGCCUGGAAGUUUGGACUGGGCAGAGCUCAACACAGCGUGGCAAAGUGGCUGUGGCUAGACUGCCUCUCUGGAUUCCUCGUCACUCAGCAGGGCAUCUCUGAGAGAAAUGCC

- Variants of: B1
- assay_comment: self-cleavage, relative activity (ratio to wild type); higher = more cleavage; in vitro, sequencing; the parent is a self-cleaving ribozyme
Parameter threshold = 1. Response is class 1 when self-cleavage meets or exceeds it, else class 0.

sequence_variant	label_value
G93U U96C	class 0
A65G A121C	class 0
U5A A138G	class 0
A6U G137A	class 1
A94U U100C	class 0
U14C C16A	class 0
A94G U112C	class 0
C120U A142U	class 1
U15A G35U	class 1
A31U U130C	class 1
G54A G105U	class 0
A31G G139A	class 1
A24U G86U	class 0
U12G A43G	class 1
A43U G135U	class 1
A79G C98U	class 0
A59G U102A	class 0
A77U U143A	class 1
U39C U108A	class 1
G34U U104C	class 1
U39A A141G	class 1
